- test.name: Surrogate Activity-Based Plasma Stability Assay
- Format: in vitro ADME
- applied.conditions: rat, Surrogate activity-based Plasma stability t½
assay.endpoint: half-life (h)

CCCC[C@H](NC(=O)[C@@H]1CCCN1C(=O)CNC(=O)[C@H](CCCCN)NC(=O)[C@H](Cc1c[nH]cn1)NC(=O)[C@@H](C)NC(=O)[C@H](CC(C)C)NC(=O)[C@H](CCCNC(=N)N)NC(=O)[C@@H]1CCCN1C(=O)[C@H](CCCNC(=N)N)NC(=O)[C@@H]1CCC(=O)N1)C(=O)N[C@H](C)C(=O)N[C@@H](Cc1ccccc1)C(=O)O [Example 39, pE-R-P-R-L-a-H-K-G-P-Nle-a-F-OH] | 14.8

----------
- test.name: Surrogate Activity-Based Plasma Stability Assay
- Format: in vitro ADME
- applied.conditions: rat, Surrogate activity-based Plasma stability t½
- Procedure: Stability half-life was then calculated by the formula, t½=0.693÷k Surrogate Activity-Based Plasma Stability Assay: […] 2) Calculate slope of value above and […]
assay.endpoint: half-life (min)

CCCC[C@@H](NC(=O)[C@@H]1CCCN1C(=O)CNC(=O)[C@H](CCCCN)NC(=O)[C@@H](Cc1c[nH]cn1)NC(=O)[C@H](C)NC(=O)[C@H](CC(C)C)NC(=O)[C@H](CCCNC(=N)N)NC(=O)[C@@H]1CCCN1C(=O)[C@H](CCCNC(=N)N)NC(=O)[C@@H]1CCC(=O)N1)C(=O)N[C@H](C)C(=O)N[C@H](Cc1ccccc1)C(=O)O | 228
CCCC[C@H](NC(=O)[C@@H]1CCCN1C(=O)CNC(=O)[C@H](CCCCN)NC(=O)C(C)(C)NC(=O)[C@H](CO)NC(=O)[C@H](CC(C)C)NC(=O)[C@H](CCCNC(=N)N)NC(=O)[C@@H]1CCCN1C(=O)[C@H](CCCNC(=N)N)NC(=O)[C@@H]1CCC(=O)N1)C(=O)N1CCC[C@H]1C(=O)N[C@H](Cc1ccccc1)C(=O)O | 42.2
CCCC[C@@H](NC(=O)[C@@H]1CCCN1C(=O)CNC(=O)[C@H](CCCCN)NC(=O)[C@@H](Cc1c[nH]cn1)NC(=O)[C@@H](C)NC(=O)[C@H](CC(C)C)NC(=O)[C@H](CCCNC(=N)N)NC(=O)[C@@H]1CCCN1C(=O)[C@H](CCCNC(=N)N)NC(=O)[C@@H]1CCC(=O)N1)C(=O)N[C@H](C)C(=O)N[C@H](Cc1ccccc1)C(=O)O | 409

----------
- target.of.assay: hAPJ (Homo sapiens, UniProt P35414)
- Sequence (P35414 1-380): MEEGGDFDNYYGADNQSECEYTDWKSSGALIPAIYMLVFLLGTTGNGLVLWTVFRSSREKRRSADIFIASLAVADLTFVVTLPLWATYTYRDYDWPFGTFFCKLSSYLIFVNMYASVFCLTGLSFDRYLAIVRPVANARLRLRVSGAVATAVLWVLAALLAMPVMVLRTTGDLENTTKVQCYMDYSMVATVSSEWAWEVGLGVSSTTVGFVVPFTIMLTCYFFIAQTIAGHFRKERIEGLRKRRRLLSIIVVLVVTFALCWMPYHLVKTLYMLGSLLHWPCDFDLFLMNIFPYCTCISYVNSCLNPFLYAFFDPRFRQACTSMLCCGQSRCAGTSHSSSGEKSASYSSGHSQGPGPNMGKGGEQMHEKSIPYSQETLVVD
- test.name: hAPJ Calcium Flux Assay
- Assay type: cell-based
- applied.conditions: Chem-5 APJ stable cells, FLIPR calcium flux stimulation; read-out: hAPJ Ca^2+ Flux EC50
pEC50: −log10 of the molar value. Where a SMILES comes first, the peptide text is derived from it. [ ]: non-standard residue; d: D form. pGlu = O=C1CC[C@@H](C(=O)O)N1; dNle = CCCC[C@@H](N)C(=O)O
Reported pEC50 values follow for various compounds
assay.endpoint: pEC50

CCCC[C@@H](NC(=O)[C@@H]1CCCN1C(=O)CNC(=O)[C@H](CCC(=O)O)NC(=O)[C@H](Cc1c[nH]cn1)NC(=O)[C@@H](C)NC(=O)[C@H](CC(C)C)NC(=O)[C@H](CCCNC(=N)N)NC(=O)[C@@H]1CCCN1C(=O)[C@H](CCCNC(=N)N)NC(=O)[C@@H]1CCC(=O)N1)C(=O)N[C@H](C)C(=O)N[C@H](Cc1ccccc1)C(=O)O [Example 60, pE-R-P-R-L-a-H-E-G-P-nle-a-f-OH] ([pGlu]RPRL[dA]HEGP[dNle][dA][dF]-OH) | 6.70
CCCC[C@H](NC(=O)[C@@H]1CCCN1C(=O)CNC(=O)[C@H](CCCCN)NC(=O)[C@H](Cc1c[nH]cn1)NC(=O)[C@@H](C)NC(=O)[C@H](CC(C)C)NC(=O)[C@H](CCCNC(=N)N)NC(=O)[C@@H]1CCCN1C(=O)[C@H](CCCNC(=N)N)NC(=O)[C@@H]1CCC(=O)N1)C(=O)N[C@H](Cc1ccccc1)C(=O)O | 7.97
CCCC[C@@H](NC(=O)[C@@H]1CCCN1C(=O)CNC(=O)[C@H](CCCCN)NC(=O)[C@@H](C)NC(=O)[C@H](CO)NC(=O)[C@@H](CC(C)C)NC(=O)[C@H](CCCNC(=N)N)NC(=O)[C@@H]1CCCN1C(=O)[C@H](CCCNC(=N)N)NC(=O)[C@@H]1CCC(=O)N1)C(=O)N[C@H](C)C(=O)N[C@H](Cc1ccccc1)C(=O)O [Example 2, pE-R-P-R-(D-Leu)-S-a-K-G-P-nle-a-f-OH] ([pGlu]RPR[dL]S[dA]KGP[dNle][dA][dF]-OH) | 6.41

----------
- target.of.assay: hAPJ (Homo sapiens, UniProt P35414)
- Sequence (P35414 1-380): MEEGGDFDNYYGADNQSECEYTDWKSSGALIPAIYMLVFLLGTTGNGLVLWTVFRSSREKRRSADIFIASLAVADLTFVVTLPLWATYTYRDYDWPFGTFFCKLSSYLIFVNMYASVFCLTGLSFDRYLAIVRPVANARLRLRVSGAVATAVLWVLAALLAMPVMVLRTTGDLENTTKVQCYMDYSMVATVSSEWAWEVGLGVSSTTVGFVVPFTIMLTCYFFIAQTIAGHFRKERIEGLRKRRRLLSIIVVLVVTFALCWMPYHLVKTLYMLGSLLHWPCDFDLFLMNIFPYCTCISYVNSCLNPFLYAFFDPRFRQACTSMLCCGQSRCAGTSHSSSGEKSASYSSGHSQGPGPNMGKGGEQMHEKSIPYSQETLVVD
- test.name: hAPJ Calcium Flux Assay
- Assay type: cell-based
- applied.conditions: Chem-5 APJ stable cells, FLIPR calcium flux stimulation; read-out: hAPJ Ca^2+ Flux EC50
pEC50: −log10 of the molar value. Where a SMILES comes first, the peptide text is derived from it. [ ]: non-standard residue; d: D form. pGlu = O=C1CC[C@@H](C(=O)O)N1; dNle = CCCC[C@@H](N)C(=O)O; Aib = CC(C)(N)C(=O)O
assay.endpoint: pEC50

CCCC[C@@H](NC(=O)[C@@H]1CCCN1C(=O)CNC(=O)[C@H](CCCCN)NC(=O)[C@H](Cc1c[nH]cn1)NC(=O)[C@@H](C)NC(=O)[C@H](CC(C)C)NC(=O)[C@H](CCCNC(=N)N)NC(=O)[C@@H]1CCCN1C(=O)[C@H](CCCNC(=N)N)NC(=O)[C@@H]1CCC(=O)N1)C(=O)N[C@H](Cc1ccccc1)C(=O)O [Example 6, pE-R-P-R-L-a-H-K-G-P-nle-f-OH] | 8.51
CCCC[C@@H](NC(=O)[C@@H]1CCCN1C(=O)CNC(=O)[C@H](CCCCN)NC(=O)C(C)(C)NC(=O)[C@@H](C)NC(=O)[C@H](CC(C)C)NC(=O)[C@H](CCCNC(=N)N)NC(=O)[C@@H]1CCCN1C(=O)[C@H](CCCNC(=N)N)NC(=O)[C@@H]1CCC(=O)N1)C(=O)N[C@H](C)C(=O)N[C@H](Cc1ccccc1)C(=O)O [Example 15, pE-R-P-R-L-a-Aib-K-G-P-nle-a-f-OH] ([pGlu]RPRL[dA][Aib]KGP[dNle][dA][dF]-OH) | 8.68
CCCC[C@@H](NC(=O)[C@@H]1CCCN1C(=O)CNC(=O)[C@H](CCCCN)NC(=O)[C@H](Cc1c[nH]cn1)NC(=O)[C@@H](CC(=O)O)NC(=O)[C@H](CC(C)C)NC(=O)[C@H](CCCNC(=N)N)NC(=O)[C@@H]1CCCN1C(=O)[C@H](CCCNC(=N)N)NC(=O)[C@@H]1CCC(=O)N1)C(=O)N[C@H](C)C(=O)N[C@H](Cc1ccccc1)C(=O)O [Example 8, pE-R-P-R-L-d-H-K-G-P-nle-a-f-OH] ([pGlu]RPRL[dD]HKGP[dNle][dA][dF]-OH) | 8.11
